- PROCEDURE TEXT: in vivo
- SETUP CONDITIONS: male, Beagle, dog, in vivo, po, 30 mg/kg/day
METRIC: Cmax (µM)
Give just the number in µM; leave the unit off.

INPUT: Provide measured Cmax value, entry: CC(C)c1ccc(CC(=O)N[C@H](C)c2ccc(OCC(F)(F)F)cn2)cc1 [CX-8998]
OUTPUT: 73.5

* * *

- PROCEDURE TEXT: Phase 1 multiple-dose pharmacokinetics (PN002/Part II)
- SETUP CONDITIONS: human, plasma, 4 mg, Cmax, M01, Day 7, CX-8998 4 mg once daily
METRIC: Cmax (nM)
Field: numeric (nM). Do not append units.

INPUT: State, in one line, measured Cmax of C=C(C)c1ccc(CC(=O)N[C@H](C)c2ccc(OCC(F)(F)F)cn2)cc1
OUTPUT: 136
